- tested.system: Dual specificity tyrosine-phosphorylation-regulated kinase 1A (Rattus norvegicus)
- assay.overview: Inhibition of rat DYRK1A kinase domain (1 to 499 residues) expressed in bacteria assessed as residual activity at 1 uM using KKISGRLSPIMTEQ as substrate in presence of [gamma-33P]ATP relative to control
Labels assigned by Activity range: low end (below 20%), middle (20% to below 60%), high end (60% or more)

## Task Form field 'band' for O=[N+]([O-])c1c2ccncc2cc2cnc(NCCN3CCCCC3)nc12
## Result middle

## Task Form field 'band' for CNc1ncc2cc3cnccc3c(N)c2n1
## Result middle

## Task Form field 'band' for CCN(CC)CCNc1ncc2cc3cnccc3c(N)c2n1
## Result middle

## Task Form field 'band' for Nc1c2ccncc2cc2cnc(NCCCN3CCOCC3)nc12
## Result low end

## Task Form field 'band' for CCN(CC)CCCNc1ncc2cc3cnccc3c(N)c2n1
## Result middle

## Task Form field 'band' for CN(C)CCCNc1ncc2cc3cnccc3c([N+](=O)[O-])c2n1
## Result high end

## Task Form field 'band' for O=[N+]([O-])c1c2ccncc2cc2cnc(-c3ccccc3)nc12
## Result high end

## Task Form field 'band' for CN1CCN(CCCNc2ncc3cc4cnccc4c(N)c3n2)CC1
## Result low end

## Task Form field 'band' for CCN(CC)CCCNc1ncc2cc3cnccc3c([N+](=O)[O-])c2n1
## Result high end

## Task Form field 'band' for Nc1c2ccncc2cc2cnc(NCCCN3CCCC3)nc12
## Result middle

## Task Form field 'band' for CN(C)CCCNc1ncc2cc3cnccc3c(N)c2n1
## Result low end

## Task Form field 'band' for CN(C)CCNc1ncc2cc3cnccc3c([N+](=O)[O-])c2n1
## Result high end

## Task Form field 'band' for CN1CCN(CCNc2ncc3cc4cnccc4c(N)c3n2)CC1
## Result low end

## Task Form field 'band' for O=[N+]([O-])c1c2ccncc2cc2cnc(NCCCN3CCCC3)nc12
## Result high end

## Task Form field 'band' for O=[N+]([O-])c1c2ccncc2cc2cnc(NCCCN3CCCCC3)nc12
## Result middle

---

- System: SH-SY5Y
- assay.overview: Antiproliferative activity against human SH-SY5Y cells assessed as cell viability at 2 uM after 48 hrs by CellTiter96 AQueous assay relative to control
- Format: functional
- condition.parameters: read-out: Activity
Under this convention, met denotes viability at 2 µM strictly below 0.9% and not met denotes viability at 2 µM at or above 0.9%.

## Task Given the entry CN[C@@H]1C[C@H]2O[C@@](C)([C@@H]1OC)n1c3ccccc3c3c4c(c5c6ccccc6n2c5c31)C(=O)NC4 [STAUROSPORINE] , would its reported viability at 2 µM be below 0.9%?
## Result not met

## Task Given the entry CN(C)CCCNc1ncc2cc3cnccc3c(N)c2n1 , would its reported viability at 2 µM be below 0.9%?
## Result met

## Task Given the entry CN1CCN(CCCNc2ncc3cc4cnccc4c(N)c3n2)CC1 , would its reported viability at 2 µM be below 0.9%?
## Result met

## Task Given the entry O=[N+]([O-])c1c2ccncc2cc2cnc(NCCCN3CCOCC3)nc12 , would its reported viability at 2 µM be below 0.9%?
## Result not met

---

- tested.system: Cyclin-dependent kinase 5/CDK5 activator 1 (Homo sapiens) (UniProt Q00535+Q15078)
- Sequence (Q00535 whole entry): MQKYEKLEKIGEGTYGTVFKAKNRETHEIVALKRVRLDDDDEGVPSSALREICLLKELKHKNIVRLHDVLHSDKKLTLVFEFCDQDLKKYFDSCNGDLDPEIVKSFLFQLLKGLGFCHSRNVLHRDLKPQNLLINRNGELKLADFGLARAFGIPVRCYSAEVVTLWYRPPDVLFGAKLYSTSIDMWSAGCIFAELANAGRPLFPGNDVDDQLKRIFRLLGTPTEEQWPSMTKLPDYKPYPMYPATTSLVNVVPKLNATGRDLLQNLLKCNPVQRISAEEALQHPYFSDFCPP
- Sequence (Q15078 99-307 partner limits assumed): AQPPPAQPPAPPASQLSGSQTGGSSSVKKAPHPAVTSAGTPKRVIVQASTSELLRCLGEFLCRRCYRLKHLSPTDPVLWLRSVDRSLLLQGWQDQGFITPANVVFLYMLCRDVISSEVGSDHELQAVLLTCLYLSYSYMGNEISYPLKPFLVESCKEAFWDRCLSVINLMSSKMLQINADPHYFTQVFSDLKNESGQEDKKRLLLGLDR
- assay.overview: Inhibition of recombinant human CDK5/p25 expressed in bacteria assessed as residual activity at 1 uM using histone H1 as substrate in presence of [gamma-33P]ATP relative to control
value.type: Activity (%)
State the answer as a number, implicitly in %.

## Task # query: Activity of entry CCN(CC)CCCNc1ncc2cc3cnccc3c([N+](=O)[O-])c2n1
## Result 100

## Task # query: Activity of entry O=[N+]([O-])c1c2ccncc2cc2cnc(NCCCN3CCOCC3)nc12
## Result 100

## Task # query: Activity of entry CN1CCN(CCNc2ncc3cc4cnccc4c(N)c3n2)CC1
## Result 88

## Task # query: Activity of entry CN(C)CCCNc1ncc2cc3cnccc3c(N)c2n1
## Result 77

## Task # query: Activity of entry Nc1c2ccncc2cc2cnc(NCCCN3CCCCC3)nc12
## Result 100

## Task # query: Activity of entry Nc1c2ccncc2cc2cnc(NCCN3CCCC3)nc12
## Result 100

## Task # query: Activity of entry Nc1c2ccncc2cc2cnc(NCCCN3CCOCC3)nc12
## Result 67

## Task # query: Activity of entry Nc1c2ccncc2cc2cnc(-c3ccccc3)nc12
## Result 92

## Task # query: Activity of entry O=[N+]([O-])c1c2ccncc2cc2cnc(-c3ccccc3)nc12
## Result 100

## Task # query: Activity of entry CCN(CC)CCNc1ncc2cc3cnccc3c([N+](=O)[O-])c2n1
## Result 100

## Task # query: Activity of entry O=[N+]([O-])c1c2ccncc2cc2cnc(NCCN3CCCC3)nc12
## Result 100

## Task # query: Activity of entry CN1CCN(CCCNc2ncc3cc4cnccc4c(N)c3n2)CC1
## Result 49
